Every entry's value here was drawn from patent US20230212549A1.

# target system: Human recombinant FAP (Homo sapiens, UniProt Q12884)
# Sequence (Q12884 whole entry): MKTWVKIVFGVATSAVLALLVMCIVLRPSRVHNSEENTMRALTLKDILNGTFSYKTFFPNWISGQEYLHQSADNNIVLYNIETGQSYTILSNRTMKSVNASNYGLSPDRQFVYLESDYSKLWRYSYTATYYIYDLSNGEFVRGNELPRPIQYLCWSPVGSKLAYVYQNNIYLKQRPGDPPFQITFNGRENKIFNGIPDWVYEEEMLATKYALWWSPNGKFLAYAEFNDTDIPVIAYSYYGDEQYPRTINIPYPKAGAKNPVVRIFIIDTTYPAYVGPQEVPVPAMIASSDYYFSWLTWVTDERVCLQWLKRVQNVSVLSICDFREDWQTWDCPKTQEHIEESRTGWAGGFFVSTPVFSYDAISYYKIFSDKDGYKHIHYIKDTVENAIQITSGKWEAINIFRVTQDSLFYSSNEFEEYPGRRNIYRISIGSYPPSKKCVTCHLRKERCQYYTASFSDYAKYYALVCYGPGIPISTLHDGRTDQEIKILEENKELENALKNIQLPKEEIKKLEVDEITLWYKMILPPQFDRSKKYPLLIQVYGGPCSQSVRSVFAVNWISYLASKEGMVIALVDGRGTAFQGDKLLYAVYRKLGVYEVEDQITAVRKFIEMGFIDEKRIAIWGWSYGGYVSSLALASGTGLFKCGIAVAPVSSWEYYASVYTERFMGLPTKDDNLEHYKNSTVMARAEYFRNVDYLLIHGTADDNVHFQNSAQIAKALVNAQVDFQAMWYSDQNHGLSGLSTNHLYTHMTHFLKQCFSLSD
# method summary: FRET-based FAP protease activity assay
# Format: biochemical
# Set-up: purchased R&D systems 3715-SE
# condition context: pIC50 Category (activity), Recombinant human FAP
pIC50: −log10 of the molar value. Numbered stars: 1 amine (or outer) side, 2 acyl side, 3 side chain; on linkers, the order of the positions; unused ones are H or OH. Bridge positions count the residues as written; N and C are the ends. Square brackets hold non-standard residues; d marks the D form. Peptide text beside a SMILES is read from it. * marks the point of attachment. mXylylene = c1cc(C[*:1])cc(C[*:2])c1; X29 = O=C(CN1CCN([*:1])CC1)[*:2]; Nle = CCCC[C@H](N)C(=O)O; X2 = NCCNCC(CNCCN)C(=O)*; βAla = NCCC(=O)O
measured quantity: pIC50

Input line: Please give the measured pIC50 for this molecule: CCCC[C@H](NC(=O)CCNC(=O)CN1CCN(C(=O)C(CNCCN)CNCCN)CC1)C(=O)N[C@H]1CSCc2cccc(c2)CSC[C@@H](C(=O)O)NC(=O)[C@H](Cc2ccccc2)NC(=O)[C@H](CCC(=O)O)NC(=O)[C@H]([C@@H](C)O)NC(=O)[C@@H]2CCCN2C(=O)[C@@H]2CCCN2C1=O [3BP-4783, N4Ac-PPAc-Bal--Nle-[C(3MeBn)-PPTEFC]-OH] (X2-[X29][βAla][Nle]CPPTEFC-OH; linker 4-10 via mXylylene)
Output line: < 6.00

* * *

# target system: FAP-expressing human WI-38 fibroblasts (Homo sapiens, UniProt Q12884)
# Sequence (Q12884 whole entry): as above
Numbered stars: 1 amine (or outer) side, 2 acyl side, 3 side chain; on linkers, the order of the positions; unused ones are H or OH. Bridge positions count the residues as written; N and C are the ends. Square brackets hold non-standard residues; d marks the D form. Peptide text beside a SMILES is read from it. * marks the point of attachment. mXylylene = c1cc(C[*:1])cc(C[*:2])c1; NMeE = CN[C@@H](CCC(=O)O)C(=O)O; Hexanoyl = CCCCCC(=O)*
measured quantity: IC50

Input line: Any idea what its IC50 is? The compound is CCCCCC(=O)N[C@H]1CSCc2cccc(c2)CSC[C@@H](C(N)=O)NC(=O)[C@H](Cc2ccccc2)NC(=O)[C@H](CCC(=O)O)N(C)C(=O)[C@H]([C@@H](C)O)NC(=O)[C@@H]2CCCN2C(=O)[C@@H]2CCCN2C1=O [3BP-3357] (Hexanoyl-CPPT[NMeE]FC-NH2; linker 1-7 via mXylylene)
Output line: > 1000 nM

* * *

# method summary: Pharmacokinetic study in mice (plasma, NCA)
# condition context: mouse, intravenous, 40 nmol/kg
measured quantity: clearance (mL/min/kg)
// units = mL/min/kg; emit number, no label

Input line: For the molecule CCCCCC(=O)N[C@H]1CSCc2cc(CSCCNC(=O)CN3CCN(CC(=O)O)CCN(CC(=O)O)CCN(CC(=O)O)CC3)cc(c2)CSC[C@@H](C(=O)O)NC(=O)[C@H](Cc2ccccc2)NC(=O)[C@H](CCC(N)=O)NC(=O)[C@H]([C@@H](C)O)NC(=O)[C@@H]2CCCN2C(=O)[C@@H]2CCCN2C1=O , what clearance is on record?
Output line: 12

* * *

Entries with their measured pIC50, system FAP-expressing human WI-38 fibroblasts (Homo sapiens, UniProt Q12884):
pIC50: −log10 of the molar value. Numbered stars: 1 amine (or outer) side, 2 acyl side, 3 side chain; on linkers, the order of the positions; unused ones are H or OH. Bridge positions count the residues as written; N and C are the ends. Square brackets hold non-standard residues; d marks the D form. Peptide text beside a SMILES is read from it. * marks the point of attachment. DOTA = O=C(O)CN1CCN(CC(=O)O)CCN(CC(=O)*)CCN(CC(=O)O)CC1; mXylylene = c1cc(C[*:1])cc(C[*:2])c1; NMeF = CN[C@@H](Cc1ccccc1)C(=O)O; Nphe = O=C(O)CNCc1ccccc1; Hexanoyl = CCCCCC(=O)*; AEEA = NCCOCCOCC(=O)O

Previously resolved entries follow.
C[C@@H](O)[C@@H]1NC(=O)[C@@H]2CCCN2C(=O)[C@@H]2CCCN2C(=O)[C@@H](NC(=O)[C@H]2CCCO2)CSCc2cc(CSCCNC(=O)CN3CCN(CC(=O)O)CCN(CC(=O)O)CCN(CC(=O)O)CC3)cc(c2)CSC[C@@H](C(=O)O)NC(=O)[C@H](Cc2ccccc2)NC(=O)[C@H](CCC(N)=O)NC1=O [3BP-3911]: 7.10 to 8.00
CCCCCC(=O)N[C@H]1CSCc2cccc(c2)CSC[C@@H](C(N)=O)NC(=O)CN(Cc2ccccc2)C(=O)[C@H](CCC(=O)O)NC(=O)[C@H]([C@@H](C)O)NC(=O)[C@@H]2CCCN2C(=O)[C@@H]2CCCN2C1=O [3BP-3360] (Hexanoyl-CPPTE[Nphe]C-NH2; linker 1-7 via mXylylene): < 6.00

--- query ---
Input line: Identify the measured pIC50 of C[C@@H](O)[C@@H]1NC(=O)[C@@H]2CCCN2C(=O)[C@@H]2CCCN2C(=O)[C@@H](NC(=O)COCCOCCNC(=O)CN2CCN(CC(=O)O)CCN(CC(=O)O)CCN(CC(=O)O)CC2)CSCc2cccc(c2)CSC[C@@H](C(=O)N[C@@H](CC(=O)O)C(=O)N[C@@H](Cc2c[nH]cn2)C(=O)N(C)[C@@H](Cc2ccccc2)C(=O)N[C@@H](CCCNC(=N)N)C(=O)N[C@@H](CC(=O)O)C(N)=O)NC(=O)[C@H](Cc2ccccc2)NC(=O)[C@H](CCC(=O)O)NC1=O [3BP-3267] ({DOTA-AEEA}-CPPTEFCDH[NMeF]RD-NH2; linker 1-7 via mXylylene) for FAP-expressing human WI-38 fibroblasts (Homo sapiens, UniProt Q12884).
Output line: 6.10 to 7.00

* * *

# target system: FAP-expressing human WI-38 fibroblasts (Homo sapiens, UniProt Q12884)
pIC50: −log10 of the molar value. Numbered stars: 1 amine (or outer) side, 2 acyl side, 3 side chain; on linkers, the order of the positions; unused ones are H or OH. Bridge positions count the residues as written; N and C are the ends. Square brackets hold non-standard residues; d marks the D form. Peptide text beside a SMILES is read from it. * marks the point of attachment. mXylylene = c1cc(C[*:1])cc(C[*:2])c1; PEG6 = NCCOCCOCCOCCOCCOCCOCCC(=O)O; X29 = O=C(CN1CCN([*:1])CC1)[*:2]; 2Thi = N[C@@H](Cc1cccs1)C(=O)O; Nle = CCCC[C@H](N)C(=O)O; X2 = NCCNCC(CNCCN)C(=O)*; Hexanoyl = CCCCCC(=O)*
Below, each entry is listed with its recorded pIC50.

Please review the entries below; each comes with its answer.
CCCCCC(=O)N[C@H]1CSCc2cccc(c2)CSC[C@@H](C(=O)N[C@@H](CC(=O)O)C(=O)N[C@@H](CCCNC(=N)N)C(N)=O)NC(=O)[C@H](Cc2ccccc2)NC(=O)[C@H](CCC(=O)O)NC(=O)[C@H]([C@@H](C)O)NC(=O)[C@@H]2CCCN2C(=O)[C@@H]2CCCN2C1=O [3BP-3299] (Hexanoyl-CPPTEFCDR-NH2; linker 1-7 via mXylylene): > 8.00
CSCC[C@H](NC(C)=O)C(=O)N[C@H]1CSCc2cccc(c2)CSC[C@@H](C(=O)N[C@@H](CC(=O)O)C(=O)N[C@@H](Cc2c[nH]cn2)C(=O)N[C@@H](Cc2ccccc2)C(=O)N[C@@H](CCCNC(=N)N)C(=O)N[C@@H](CC(=O)O)C(N)=O)NC(=O)[C@H](Cc2cccs2)NC(=O)[C@H](CCC(=O)O)NC(=O)[C@H]([C@@H](C)O)NC(=O)[C@@H]2CCCN2C(=O)[C@@H]2CCCN2C1=O [3BP-3193] (Ac-MCPPTE[2Thi]CDHFRD-NH2; linker 2-8 via mXylylene): > 8.00

Input line: # input compound: CCCC[C@H](NC(=O)CCOCCOCCOCCOCCOCCOCCNC(=O)CN1CCN(C(=O)C(CNCCN)CNCCN)CC1)C(=O)N[C@H]1CSCc2cccc(c2)CSC[C@@H](C(=O)O)NC(=O)[C@H](Cc2ccccc2)NC(=O)[C@H](CCC(=O)O)NC(=O)[C@H]([C@@H](C)O)NC(=O)[C@@H]2CCCN2C(=O)[C@@H]2CCCN2C1=O [3BP-4781] (X2-[X29][PEG6][Nle]CPPTEFC-OH; linker 4-10 via mXylylene) ; wanted: its pIC50
Output line: 7.10 to 8.00

* * *

The reader will find reported IC50 values listed item by item below.
# target system: Human recombinant FAP (Homo sapiens, UniProt Q12884)
# method summary: FRET-based FAP protease activity assay
# Assay type: biochemical
# Set-up: purchased R&D systems 3715-SE
# condition context: pIC50 Category (Activity), FRET-based FAP protease activity assay, recombinant human FAP, 37° C.
Numbered stars: 1 amine (or outer) side, 2 acyl side, 3 side chain; on linkers, the order of the positions; unused ones are H or OH. Bridge positions count the residues as written; N and C are the ends. Square brackets hold non-standard residues; d marks the D form. Peptide text beside a SMILES is read from it. * marks the point of attachment. X13 = O=C(O)CN1CCN(CC(=O)O)CCN(CC(=O)N2CCN(Cc3cc(C[*:1])cc(C[*:2])c3)CC2)CCN(CC(=O)O)CC1; Phe(4-Cl) = N[C@@H](Cc1ccc(Cl)cc1)C(=O)O; mXylylene = c1cc(C[*:1])cc(C[*:2])c1; Hexanoyl = CCCCCC(=O)*; Sar = CNCC(=O)O

Worked examples, 2 molecules total:
CCCCCC(=O)N[C@H]1CSCc2cc(cc(CN3CCN(C(=O)CN4CCN(CC(=O)O)CCN(CC(=O)O)CCN(CC(=O)O)CC4)CC3)c2)CSC[C@@H](C(=O)N[C@@H](CC(=O)O)C(N)=O)NC(=O)[C@H](Cc2ccccc2)NC(=O)[C@H](C)NC(=O)[C@H](C)NC(=O)[C@@H]2CCCN2C(=O)[C@@H]2CCCN2C1=O [3BP-3746] (Hexanoyl-CPPAAFCD-NH2; linker 1-7 via X13): 100 to 794 nM
CCCCCC(=O)N[C@H]1CSCc2cccc(c2)CSC[C@@H](C(N)=O)NC(=O)[C@H](Cc2ccc(Cl)cc2)NC(=O)[C@H](CCC(=O)O)NC(=O)[C@H]([C@@H](C)O)NC(=O)[C@@H]2CCCN2C(=O)[C@@H]2CCCN2C1=O [3BP-3369] (Hexanoyl-CPPTE[Phe(4-Cl)]C-NH2; linker 1-7 via mXylylene): 100 to 794 nM

Input line: Checklist item: IC50 tested on Human recombinant FAP (Homo sapiens, UniProt Q12884), entry CCCCCC(=O)N[C@H]1CSCc2cccc(c2)CSC[C@@H](C(N)=O)NC(=O)[C@H](Cc2ccccc2)NC(=O)[C@H](CCC(=O)O)NC(=O)[C@H]([C@@H](C)O)NC(=O)[C@@H]2CCCN2C(=O)CN(C)C1=O [3BP-3347] (Hexanoyl-C[Sar]PTEFC-NH2; linker 1-7 via mXylylene) , value?
Output line: 10 to 79.4 nM
